Below: a set of entries, each annotated with reported pIC50.
molecular target: KRAS G12V (Homo sapiens (Human), UniProt P01116+P62937, G12V); experiment: Ras-Raf (BRAF RBD) disruption / FRET / MOA assay, KRAS G12V; format: biochemical; conditions: read-out: IC50* KRAS G12V FRET data
Sequence (P01116-2 other isoform, or with tags, fused parts or gaps G12V): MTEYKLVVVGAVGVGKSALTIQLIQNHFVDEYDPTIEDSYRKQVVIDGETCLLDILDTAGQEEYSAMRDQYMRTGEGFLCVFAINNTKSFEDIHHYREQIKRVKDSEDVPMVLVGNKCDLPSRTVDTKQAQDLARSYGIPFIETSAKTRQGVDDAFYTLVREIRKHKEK
Sequence (P62937 whole entry): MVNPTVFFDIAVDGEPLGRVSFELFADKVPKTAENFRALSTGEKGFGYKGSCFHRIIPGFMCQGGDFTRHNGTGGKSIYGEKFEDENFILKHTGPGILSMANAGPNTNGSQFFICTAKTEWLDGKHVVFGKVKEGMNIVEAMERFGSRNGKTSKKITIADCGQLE
pIC50: −log10 of the molar value.

{"columns": ["Molecule", "pIC50"],
 "data": [
  ["C=C(F)C(=O)N1CC2(CCN(C(=O)N(C)[C@H](C(=O)N[C@H]3Cc4nc(cs4)-c4ccc5c(c4)c(c(-c4cccnc4[C@H](C)OC)n5CC)CC(C)(C)COC(=O)[C@@H]4CCCN(N4)C3=O)C(C)C)CC2)C1 (atropisomer, axis not shown)", "6.00 to 7.00"],
  ["CCn1c(-c2cccnc2[C@H](C)OC)c2c3cc(ccc31)-c1cccc(c1)C[C@H](NC(=O)[C@@H](COC1CN(C(=O)C#CC(C)(C)N(C)C3CC3)C1)C(C)C)C(=O)N1CCC[C@H](N1)C(=O)OCC(C)(C)C2 (atropisomer, axis not shown)", "< 5.00"],
  ["CCn1c(-c2cccnc2[C@H](C)OC)c2c3cc(ccc31)N1CCO[C@@H](C[C@H](NC(=O)[C@H](C(C)C)N(C)C(=O)C3(F)CCN(C(=O)C#CC(C)(C)N(C)C)CC3)C(=O)N3CCC[C@H](N3)C(=O)OCC(C)(C)C2)C1 (atropisomer, axis not shown)", "5.00 to 6.00"],
  ["C=CC(=O)N1CCO[C@@]2(CCN(C(=O)N(C)[C@H](C(=O)N[C@H]3Cc4nc(cs4)-c4ccc5c(c4)c(c(-c4cccnc4[C@H](C)OC)n5CC(F)(F)F)CC(C)(C)COC(=O)[C@@H]4CCCN(N4)C3=O)C(C)C)C2)C1 (atropisomer, axis not shown)", "6.00 to 7.00"]
]}

###

molecular target: K-Ras G12C (Homo sapiens (Human), UniProt P01116+P62937, G12C); assay: Ras-Raf (BRAF RBD) disruption / FRET / MOA assay, KRAS G12C; type: biochemical; conditions: KRAS G12C; Ras-Raf disruption/FRET/MOA assay; read-out: IC50* KRAS G12C FRET data
Sequence (P01116-2 other isoform, or with tags, fused parts or gaps G12C): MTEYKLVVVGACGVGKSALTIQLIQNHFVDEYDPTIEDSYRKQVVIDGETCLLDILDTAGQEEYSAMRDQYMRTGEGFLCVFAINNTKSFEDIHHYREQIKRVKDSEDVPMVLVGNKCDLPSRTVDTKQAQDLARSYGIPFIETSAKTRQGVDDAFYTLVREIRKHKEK
Sequence (P62937 whole entry): as the sequence (P62937 whole entry) above

{"columns": ["Molecule", "IC50"],
 "data": [
  ["CCn1c(-c2cccnc2[C@H](C)OC)c2c3cc(ccc31)-c1nc(nn1C)C[C@H](NC(=O)[C@@H](COC1CN(C(=O)C#CC(C)(C)N(C)C)C1)C(C)C)C(=O)N1CCC[C@H](N1)C(=O)OCC(C)(C)C2 (atropisomer, axis not shown)", "0.01 to 0.1 µM"],
  ["C=C(C)C(=O)N1CC(N(C)C(=O)N(C)[C@H](C(=O)N[C@H]2Cc3nc(cs3)-c3ccc4c(c3)c(c(-c3cccnc3[C@H](C)OC)n4CC)CC(C)(C)COC(=O)[C@@H]3CCCN(N3)C2=O)C(C)C)C1 (atropisomer, axis not shown)", "0.1 to 1 µM"],
  ["COCc1ncccc1-c1nc2ccc3cc2n1CC(C)(C)COC(=O)[C@@H]1CCCN(N1)C(=O)[C@@H](NC(=O)[C@H](C(C)C)N(C)C(=O)[C@H]1CCN(C(=O)C#CCN2CCOCC2)C1)Cc1cc(O)cc-3c1", "0.1 to 1 µM"],
  ["CCn1c(-c2cccnc2[C@H](C)OC)c2c3cc(ccc31)-c1csc(n1)C[C@H](NC(=O)C[C@@H]1COC3(CN(C(=O)C#CC(C)(C)N(C)C)C3)O1)C(=O)N1CCC[C@H](N1)C(=O)OCC(C)(C)C2 (atropisomer, axis not shown)", "< 0.01 µM"],
  ["C=CC(=O)N1CC[C@@H]2[C@H]1CN2C(=O)N(C)[C@H](C(=O)N[C@H]1Cc2nc(cs2)-c2ccc3c(c2)c(c(-c2cccnc2[C@H](C)OC)n3CC)CC(C)(C)COC(=O)[C@@H]2CCCN(N2)C1=O)C(C)C (atropisomer, axis not shown)", "0.1 to 1 µM"],
  ["C=CC(=O)N1CC[C@H](C(=O)N(C)[C@H](C(=O)N[C@H]2Cc3csc(n3)-c3ccc4c(c3)c(c(-c3cccnc3[C@H](C)OC)n4CC(F)(F)F)CC(C)(C)COC(=O)[C@@H]3CCCN(N3)C2=O)C(C)C)C1 (atropisomer, axis not shown)", "0.1 to 1 µM"],
  ["C=CC(=O)N1CC(O[C@H](C(=O)N[C@H]2Cc3cc(O)cc(c3)-c3ccc4c(c3)c(c(-c3cccnc3COC)n4CC)CC(C)(C)COC(=O)[C@@H]3CCCN(N3)C2=O)C(C)C)C1", "1 to 10 µM"],
  ["C=CC(=O)N1CC[C@H](C(=O)N(C)[C@H](C(=O)N[C@H]2Cc3cccc(c3)-c3ccc4c(c3)c(c(-c3cccnc3[C@H](C)OC)n4CC#CC)CC(C)(C)COC(=O)[C@@H]3CCCN(N3)C2=O)C(C)C)C1 (atropisomer, axis not shown)", "0.1 to 1 µM"]
]}
